Data origin: PubChem BioAssay (NCI)

Test system: SK-MEL-2 melanoma
Test: NCI-60 one-dose screen, 48 h (100 = growth as untreated, 0 = no growth, -100 = all killed)
Details: 10 µM unless noted
Procedure: Growth inhibition of the SK-MEL-2 human tumor cell line is measured as a screen for anti-cancer activity. Cells are grown in 96 well plates and exposed to the test compound for 48 hours. Compounds are tested at a single concentration, which is 10^-5 M for most compounds. The reported endpoint is percent growth (GI% or GIPRCNT), where numbers from 0 - 100% represent growth inhibition, and numbers from -100% - 0 represent cell death. For example, a value of 40 represents 60% growth inhibition. […]
About 83,000 compounds went through this panel and 20% of them were active in at least one assay; those are over-represented in the sample as a whole.
Field: label. Allowed values: MET (growth < 40%) or NOT MET (growth >= 40%).

molecule | group
CC(=O)Cc1nsc(NC(=O)c2cc(-c3cc(Cl)ccc3Cl)oc2C)n1 | NOT MET
COc1cc(/C=C/C(=O)c2ccc(-n3cc(CN4CCN(c5cc6c(cc5F)c(=O)c(C(=O)O)cn6C5CC5)CC4)nn3)cc2)cc(OC)c1OC | NOT MET
CCNc1nc(-c2ccc(Cl)c(OC)c2)c(-c2ccnc(NCCNS(=O)(=O)c3ccc(Cl)cc3)n2)s1 | MET
N#CC1=C(N)Oc2c(ccc3ccccc23)C1c1cc2ccccc2n2nnnc12 (centres undefined) | MET
Nc1c(C(=O)c2ccc(Cl)cc2)sc(Nc2ccccc2)c1-c1nc2ccccc2s1 | MET
COc1ccc(-c2nc(SCCC(C)C)nc(N/N=C(/C)c3ccc(N)cc3)c2C#N)cc1 | NOT MET
N/C(=N\c1nc2ccccc2s1)NC(=O)Nc1ccccc1 | MET
O=[N+]([O-])c1ccc(N/N=C\c2cc(Cl)ccc2O)nc1 | NOT MET
COc1cc(-c2c(-c3ccccc3)c[nH]c2C(=O)NCCCO)c(OC)c2c1OCO2 | NOT MET
